Target: PDGF-Rα (Homo sapiens, UniProt P16234)
Sequence (P16234 24-1089): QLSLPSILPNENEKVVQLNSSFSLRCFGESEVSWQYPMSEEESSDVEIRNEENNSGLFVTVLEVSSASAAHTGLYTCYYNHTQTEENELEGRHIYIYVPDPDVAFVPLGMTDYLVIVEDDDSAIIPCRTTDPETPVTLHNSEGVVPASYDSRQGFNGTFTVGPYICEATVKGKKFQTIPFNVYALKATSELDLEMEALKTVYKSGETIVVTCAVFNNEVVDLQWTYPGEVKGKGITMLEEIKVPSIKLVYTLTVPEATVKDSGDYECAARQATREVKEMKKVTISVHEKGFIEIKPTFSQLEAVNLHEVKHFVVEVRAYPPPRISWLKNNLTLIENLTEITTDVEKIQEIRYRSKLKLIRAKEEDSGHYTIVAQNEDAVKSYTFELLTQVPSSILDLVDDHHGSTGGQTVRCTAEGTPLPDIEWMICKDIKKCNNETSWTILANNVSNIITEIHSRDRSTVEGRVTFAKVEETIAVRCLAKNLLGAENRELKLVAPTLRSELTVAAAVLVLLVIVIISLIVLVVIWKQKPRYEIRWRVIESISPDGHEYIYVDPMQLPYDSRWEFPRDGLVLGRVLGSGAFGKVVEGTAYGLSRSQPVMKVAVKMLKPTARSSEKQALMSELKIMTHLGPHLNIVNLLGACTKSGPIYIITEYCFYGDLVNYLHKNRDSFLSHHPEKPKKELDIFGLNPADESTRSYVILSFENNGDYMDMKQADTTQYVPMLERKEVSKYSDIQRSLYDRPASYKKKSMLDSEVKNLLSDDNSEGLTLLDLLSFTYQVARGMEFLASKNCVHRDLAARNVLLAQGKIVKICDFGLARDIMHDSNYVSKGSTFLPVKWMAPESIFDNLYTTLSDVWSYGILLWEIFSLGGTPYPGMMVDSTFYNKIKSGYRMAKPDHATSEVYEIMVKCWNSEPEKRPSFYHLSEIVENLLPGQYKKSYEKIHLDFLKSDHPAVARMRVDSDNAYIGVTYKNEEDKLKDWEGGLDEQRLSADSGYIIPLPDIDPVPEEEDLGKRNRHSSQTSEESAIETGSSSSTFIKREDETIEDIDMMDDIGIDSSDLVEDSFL
Test: In vitro protein kinase assay (radioisotopic 33P, FlashPlate)
Details: recombinant human kinase
Description: The effect of the thiazole derivatives was tested on recombinant, human protein kinases in in vitro protein kinase assays. […] The kinase activity was measured with a radioisotopic protein kinase assay by measuring the incorporation of ^33P-phosphate into proteins or peptide substrates. The assays were performed in FlashPlate™ microtiter scintillation plates and incorporation of ^33P-phosphate was determined with a microplate scintillation counter.
quantity-kind: IC50 (µM)
Provide the reading as a plain figure in µM.

Field: IC50 (PDGF-Rα (Homo sapiens, UniProt P16234)). Entry: `COc1cc2c(Nc3ncc(CCC(=O)Nc4ccc(F)cc4)s3)ncnc2cc1OCCCN1CCCC1`
1
